Reference for the values: the supplement of paper PMC10567573

B1: NR2F2 (parent)
chain: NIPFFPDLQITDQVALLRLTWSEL

# Variants of: B1
# EXPERIMENTAL PROTOCOL: protein stability index of a GFP-peptide fusion (GPS, HEK-293T) (PSI 1-6); higher = more stable;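 further: lentivirally expressed fusions sorted by FACS into six bins by GFP to DsRed ratio, PSI derived from sequencing read proportions per bin multiplied by bin number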
# ASSAY SETUP: c terminus: a fixed tail appended
PROPERTY NAME: protein stability index
Give the figure by itself; no unit, no explanation.

Record excerpt, results attached:
{"MUTANT DESIGNATION": "P3K", "protein stability index": 3.61}
{"MUTANT DESIGNATION": "L16G", "protein stability index": 2.02}

Please give the measured protein stability index for this variant: "F4I"
2.63

Please give the measured protein stability index for this variant: "S22Q"
1.91

Please give the measured protein stability index for this variant: "N1F"
3.02

Please give the measured protein stability index for this variant: "L24T"
1.98

Please give the measured protein stability index for this variant: "N1R"
4.3
